Consider the following IC50 values measured on 3',5'-cyclic-AMP phosphodiesterase 4D (Homo sapiens).
Sequence (Q08499 whole entry): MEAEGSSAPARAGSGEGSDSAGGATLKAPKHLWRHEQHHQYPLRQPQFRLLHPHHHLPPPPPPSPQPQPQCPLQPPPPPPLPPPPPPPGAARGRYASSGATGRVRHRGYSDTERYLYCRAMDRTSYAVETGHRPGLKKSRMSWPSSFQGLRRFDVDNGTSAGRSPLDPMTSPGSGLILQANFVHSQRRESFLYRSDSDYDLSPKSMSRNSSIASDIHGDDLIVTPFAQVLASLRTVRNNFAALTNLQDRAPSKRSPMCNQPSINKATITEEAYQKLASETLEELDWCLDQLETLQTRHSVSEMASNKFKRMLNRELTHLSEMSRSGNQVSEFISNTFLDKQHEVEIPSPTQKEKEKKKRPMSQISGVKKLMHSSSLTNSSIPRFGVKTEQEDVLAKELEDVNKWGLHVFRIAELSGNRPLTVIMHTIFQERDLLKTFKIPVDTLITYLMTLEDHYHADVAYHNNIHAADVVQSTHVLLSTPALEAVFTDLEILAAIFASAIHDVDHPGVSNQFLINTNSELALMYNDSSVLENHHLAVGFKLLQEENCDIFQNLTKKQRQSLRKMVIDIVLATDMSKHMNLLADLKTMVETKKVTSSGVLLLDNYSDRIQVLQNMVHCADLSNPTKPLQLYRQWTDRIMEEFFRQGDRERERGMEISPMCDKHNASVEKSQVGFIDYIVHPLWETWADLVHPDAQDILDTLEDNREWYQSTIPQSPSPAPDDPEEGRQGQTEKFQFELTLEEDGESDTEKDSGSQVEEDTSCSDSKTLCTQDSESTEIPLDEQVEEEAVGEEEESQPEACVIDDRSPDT
Give the value, in units of nM, as a plain number.

1. O=C(O)c1cccc(-c2cc3nccc(-c4ccc(OC(F)F)c(OCC5CC5)c4)n3n2)c1	9

**Q:** Recorded IC50 of COc1ccc(-c2ccnc3cc(-c4ccccc4OC)nn23)cc1OC1CCCC1 , please.
**A:** 70

**Q:** Also CC(C)Oc1cccc(-c2cc3nccc(-c4ccc(OC(F)F)c(OCC5CC5)c4)n3n2)c1 , if possible.
**A:** 46

**Q:** Also COc1ccc(-c2ccnc3cc(-c4cc(Cl)ccc4Cl)nn23)cc1OC1CCCC1 , if possible.
**A:** 30

**Q:** Also CCNC(=O)c1cccc(-c2cc3nccc(-c4ccc(OC(F)F)c(OCC5CC5)c4)n3n2)c1 , if possible.
**A:** 28

**Q:** Also COc1cc(OC)cc(-c2cc3nccc(-c4ccc(OC(F)F)c(OCC5CC5)c4)n3n2)c1 , if possible.
**A:** 29

**Q:** Also FC(F)Oc1ccc(-c2ccnc3cc(-c4cc(Cl)cc(Cl)c4)nn23)cc1OCC1CC1 , if possible.
**A:** 100

**Q:** Also COc1ccc(-c2ccnc3cc(-c4ccc(Cl)cc4)nn23)cc1OC1CCCC1 , if possible.
**A:** 90

**Q:** Also COC(=O)c1cccc(-c2cc3nccc(-c4ccc(OC(F)F)c(OCC5CC5)c4)n3n2)c1 , if possible.
**A:** 37
